Cited source: patent US20180256673A1

system: C. albicans vaginal isolates; assay: Susceptibility testing of VVC clinical isolates at pH 7 and 4 (CLSI M27-A3); type: cell-based, Candida albicans; conditions: Candida albicans, 48 h, pH 7, fluconazole-resistant isolate 6; pH 7; 48 h; read-out: MIC
Starred links: 1 amine or outer side, 2 acyl side, 3 side chain; linkers in the order of their positions; H or OH if unused. Positions of bridges follow the written chain, without caps; N, C: chain ends. Non-standard residues stand in square brackets, D forms with d. Residues, ends and D or L forms follow the SMILES beside them. *: point of attachment. Orn(4R-OH,5R-OCH2CH2NMe3+) = C[N+](C)(C)CCO[C@@H](N[*:3])[C@H](O)C[C@H](N[*:1])C(=O)[*:2]; pTerphenylCO(4''-OnC5H11) = CCCCCOc1ccc(-c2ccc(-c3ccc(C(=O)*)cc3)cc2)cc1; hTyr(3S-OH,4S-OH) = N[C@H](C(=O)O)[C@H](O)[C@@H](O)c1ccc(O)cc1; Pro(3S-OH,4S-Me) = C[C@H]1CN[C@H](C(=O)O)[C@H]1O; Hyp = O=C(O)[C@@H]1C[C@@H](O)CN1
observable: MIC (µg/mL)
The figure you give is taken to be in µg/mL; do not add the unit.

Sample records with MIC:
compound	quantitative result
CCC(C)n1ncn(-c2ccc(N3CCN(c4ccc(OCC5COC(Cn6cncn6)(c6ccc(Cl)cc6Cl)O5)cc4)CC3)cc2)c1=O (stereo not shown)	0.016
OC(Cn1cncn1)(Cn1cncn1)c1ccc(F)cc1F	0.25
CCCCCOc1ccc(-c2ccc(-c3ccc(C(=O)N[C@H]4C[C@@H](O)[C@@H](OCC[N+](C)(C)C)NC(=O)[C@@H]5[C@@H](O)[C@@H](C)CN5C(=O)[C@H]([C@@H](C)O)NC(=O)[C@H]([C@H](O)[C@@H](O)c5ccc(O)cc5)NC(=O)[C@@H]5C[C@@H](O)CN5C(=O)[C@H]([C@@H](C)O)NC4=O)cc3)cc2)cc1 [Compound 1] ({pTerphenylCO(4''-OnC5H11)}-[Orn(4R-OH,5R-OCH2CH2NMe3+)]T[Hyp][hTyr(3S-OH,4S-OH)]T[Pro(3S-OH,4S-Me)]; lactam 1-C)	0.03

Then this compound:
Asked: Using the record for CC[C@H](C)C[C@H](C)CCCCCCCCC(=O)N[C@H]1C[C@@H](O)[C@@H](NCCN)NC(=O)[C@@H]2[C@@H](O)CCN2C(=O)[C@H]([C@H](O)CCN)NC(=O)[C@H]([C@H](O)[C@@H](O)c2ccc(O)cc2)NC(=O)[C@@H]2C[C@@H](O)CN2C(=O)[C@H]([C@@H](C)O)NC1=O , state its measured MIC.
Given back: 1
